# System: Nucleic Acid
# procedure_summary: Compound was tested for the extent of DNA binding in calf thymus at pH 7 TRIS buffer.
# Format: nucleic-acid assay
# condition_details: Bos taurus
readout_type: Extent of DNA binding
API doc: respond with a numeric literal and nothing else, no unit.

Answered examples (4):
COc1cccc2c1C(=O)c1c(O)c3c(c(O)c1C2=O)C[C@@](O)(C(C)=O)C[C@@H]3O[C@H]1O[C@H](C)[C@@H](N)[C@H]1O; 0.8
COc1cccc2c1C(=O)c1c(O)c3c(c(O)c1C2=O)C[C@@](O)(C(=O)CO)C[C@@H]3O[C@H]1C[C@H](N)[C@H](O)[C@H](C)O1; 0.62
CCCCC(=O)OCC(=O)[C@]1(O)Cc2c(O)c3c(c(O)c2[C@@H](OC2CC(NC(=O)C(F)(F)F)C(O)C(C)O2)C1)C(=O)c1c(OC)cccc1C3=O (stereo not given in full); 0.96
COc1cccc2c1C(=O)c1c(O)c3c(c(O)c1C2=O)C[C@@](O)(C(C)=O)C[C@@H]3O[C@@H]1O[C@H](CO)[C@@H](O)[C@H](O)[C@H]1N; 0.82

I am curious: what Extent of DNA binding value has been reported for `COc1cccc2c1C(=O)c1c(O)c3c(c(O)c1C2=O)C[C@@](O)(C(C)=O)C[C@@H]3O[C@@H]1O[C@H](C)[C@@H](N)[C@H]1O` ?
0.86
